Molecular target: bovine trypsin (bovine, UniProt P00760 24-246)
Sequence (P00760 24-246): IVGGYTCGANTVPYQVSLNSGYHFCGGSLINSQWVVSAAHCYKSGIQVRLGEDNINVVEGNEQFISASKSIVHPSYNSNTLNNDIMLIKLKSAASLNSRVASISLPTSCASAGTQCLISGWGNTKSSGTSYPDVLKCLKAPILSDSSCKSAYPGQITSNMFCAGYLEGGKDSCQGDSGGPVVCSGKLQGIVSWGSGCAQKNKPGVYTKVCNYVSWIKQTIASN
Assay: trypsin inhibition, BApNA substrate
pKi: −log10 of the molar value. Bridge positions count the residues as written; N and C are the ends. Ends that are not written are not given here.
# label = condition met if pKi >= 6 else condition not met

In plain terms: is recorded pKi at least 6 for CIRATKSIPPICF (disulfide 1-12 (inferred)) [BT73] ?
condition met

# bool: pKi of CGRATRSAPPICF (disulfide 1-12 (inferred)) [BT21] >= 6
condition not met

Has GTCTRSIPPICNPN (disulfide 3-11 (inferred)) [BT23] a recorded pKi greater than or equal to 6?
condition met

Hello, I need to know if CGRATKSLPPACF (disulfide 1-12 (inferred)) [BT14] has measured pKi not below 6. Thanks!
condition met

Dear colleague, could you confirm whether CGRATKSIPPQCY (disulfide 1-12 (inferred)) [BT12] has pKi at or above 6?
condition not met
